# targetOrSystem: T1, GFP-9S library array, motif 4 ND N98A;D124P (synthetic construct, N98A;D124P)
# T1 chain: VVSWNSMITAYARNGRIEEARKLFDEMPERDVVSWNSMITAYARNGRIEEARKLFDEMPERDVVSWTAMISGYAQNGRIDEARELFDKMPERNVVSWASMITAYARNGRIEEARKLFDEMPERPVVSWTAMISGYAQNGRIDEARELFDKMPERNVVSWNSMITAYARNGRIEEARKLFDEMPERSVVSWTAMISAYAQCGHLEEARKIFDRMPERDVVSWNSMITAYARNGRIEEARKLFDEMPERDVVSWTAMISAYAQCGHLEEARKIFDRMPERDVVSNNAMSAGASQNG
# assayText: high-throughput RNA pulldown from lysate on Ni-NTA beads; HRP: 50 mM Tris pH 8, 150 mM NaCl, 1 mM beta-mercaptoethanol, 50 ug/ml BSA, 3 ug/ml yeast RNA, 0.5% heparin; ITC and FP: Tris pH 8, 200 mM KCl, 5% glycerol; MST: 50 mM Tris pH 8, 200 mM NaCl, 1 mM DTT, BSA, heparin, 0.05% Tween 20
# runParameters: tags: N-terminal His-eGFP; label: 5' IRDye 800CW
Quick reference: Kd of the listed items.
Write the answer as a number in nM, unit excluded.

AUUAUACGUGA (ssRNA) [IR-rpoA-U]: 320

Consider the additional binder presented here.
Exercise: Value lookup for Kd; key = AUUAAACGUGA (ssRNA) [IR-rpoA-A]
Key: 218
